target: T1, Growth and differentiation factor-8 (GDF-8), mature human (human, UniProt O14793 267-375, conjugated to biotin in the ActRIIB ELISA and in the Fc gamma receptor SPR (site not stated)); test: SPR
T1 construct: also called myostatin; human GDF-8
Parameter measured: Kd (pM)
Note: unit pM is implicit; provide only the numeric part.

Input: I'd like to know its Kd. The binder in question is OGD1.0.3 humanized anti-GDF-8 antibody (VH0 and VL3) (antibody, V domains shown) VH: EVQLLESGGGLVQPGGSLRLSCAASGFTFSSYAMSWVRQAPGKGLEWVSTISSGGSYTSYPDSVKGRFTISRDNSKNTLYLQMNSLRAEDTAVYYCAKQDYAMNYWGQGTLVTVSS VL: DIQMTQSPSSLSASVGDRVTITCRASQSISTALNWYQQKPGKAPKLLIYSASSLQSGVPSRFSGSGSGTDFTLTISSLQPEDFATYYCQQSYSTPWTFGGGTKVEIK
Output: 3.17

# credit: patent US20180057579A1
